- study target: IGF-1R in MCF7 cells (Homo sapiens, UniProt P08069)
- Sequence (P08069 31-1367): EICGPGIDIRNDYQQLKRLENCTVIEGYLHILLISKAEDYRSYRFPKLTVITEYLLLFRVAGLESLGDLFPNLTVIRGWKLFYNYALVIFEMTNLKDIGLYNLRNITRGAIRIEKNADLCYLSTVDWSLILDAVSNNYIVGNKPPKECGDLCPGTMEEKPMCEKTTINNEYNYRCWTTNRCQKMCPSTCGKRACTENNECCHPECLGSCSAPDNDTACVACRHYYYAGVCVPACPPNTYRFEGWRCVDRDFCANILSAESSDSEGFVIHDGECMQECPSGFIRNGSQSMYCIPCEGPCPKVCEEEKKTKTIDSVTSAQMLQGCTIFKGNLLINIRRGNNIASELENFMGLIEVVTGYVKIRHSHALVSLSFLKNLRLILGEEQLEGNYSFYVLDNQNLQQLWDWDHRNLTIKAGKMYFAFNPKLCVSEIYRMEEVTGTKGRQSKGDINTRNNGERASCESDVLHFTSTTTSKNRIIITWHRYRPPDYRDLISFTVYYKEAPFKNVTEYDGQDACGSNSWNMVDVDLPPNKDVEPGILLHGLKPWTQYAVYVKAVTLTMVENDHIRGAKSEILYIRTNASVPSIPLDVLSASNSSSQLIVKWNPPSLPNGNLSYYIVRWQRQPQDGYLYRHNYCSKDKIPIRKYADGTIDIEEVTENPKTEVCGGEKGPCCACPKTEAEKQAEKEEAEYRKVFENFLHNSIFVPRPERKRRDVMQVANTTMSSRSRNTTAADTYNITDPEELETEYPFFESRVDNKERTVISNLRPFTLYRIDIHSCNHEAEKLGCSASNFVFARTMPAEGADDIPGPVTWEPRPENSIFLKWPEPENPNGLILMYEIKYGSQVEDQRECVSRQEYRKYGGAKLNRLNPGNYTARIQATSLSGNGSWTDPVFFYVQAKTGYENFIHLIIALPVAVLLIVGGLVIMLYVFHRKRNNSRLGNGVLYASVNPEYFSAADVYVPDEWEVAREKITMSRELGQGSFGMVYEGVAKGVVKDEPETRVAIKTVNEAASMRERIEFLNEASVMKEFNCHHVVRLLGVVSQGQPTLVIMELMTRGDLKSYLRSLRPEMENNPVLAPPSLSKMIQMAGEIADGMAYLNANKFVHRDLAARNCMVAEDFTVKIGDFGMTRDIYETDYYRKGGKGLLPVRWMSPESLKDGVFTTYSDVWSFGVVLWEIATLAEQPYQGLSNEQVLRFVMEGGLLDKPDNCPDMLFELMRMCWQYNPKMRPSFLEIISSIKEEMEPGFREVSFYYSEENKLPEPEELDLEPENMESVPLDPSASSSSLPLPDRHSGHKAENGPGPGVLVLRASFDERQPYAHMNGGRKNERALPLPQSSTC
- experimental protocol: Autophosphorylation of IGF-1R in MCF7 cells after stimulation with IGF-1 (ELISA)
- Format: cell-based
- Set-up: The autophosphorylation of IGF1R in the IGF1-induced cells is evaluated by means of an ELISA technique; endogenous in cells; host or cells: MCF-7 cells
- conditions used: MCF-7 cells, compound added one hour before stimulation with IGF1; read-out: Test B IC50
value kind: IC50

So what does the record say about IC50 for CC1(C)C(=O)N(c2ccc(SC(F)(F)F)cc2)C(=O)N1Cc1ccnc(NC(N)=O)c1 [Example 40A] ?
< 10 nM

====

- study target: human cytoplasmic domain of IGF-1R (Homo sapiens, UniProt P08069)
- Construct: The human cytoplasmic domain of IGF-1R was cloned by fusion with glutathione S-transferase (GST); made in house; host or cells: SF21 insect cells (baculovirus, pFastBac-GST)
- Sequence (P08069 960-1367 limits assumed): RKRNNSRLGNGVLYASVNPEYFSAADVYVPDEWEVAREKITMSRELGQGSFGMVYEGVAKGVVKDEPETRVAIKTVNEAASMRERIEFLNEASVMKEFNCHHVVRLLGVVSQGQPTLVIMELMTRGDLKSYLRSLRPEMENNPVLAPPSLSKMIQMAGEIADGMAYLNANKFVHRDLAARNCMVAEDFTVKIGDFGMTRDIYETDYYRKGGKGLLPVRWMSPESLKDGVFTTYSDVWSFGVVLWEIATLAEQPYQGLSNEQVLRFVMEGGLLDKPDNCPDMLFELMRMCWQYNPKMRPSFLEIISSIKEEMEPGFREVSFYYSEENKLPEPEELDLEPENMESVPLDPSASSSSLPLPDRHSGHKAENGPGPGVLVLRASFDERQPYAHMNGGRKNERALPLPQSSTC
- experimental protocol: Kinase IGF-1R test: inhibition of autophosphorylation of the enzyme (HTRF)
- Type: biochemical
- conditions used: preincubation 30 minutes with 5 nM enzyme, ATP 120 μM; read-out: Test A 30′ IC50
pIC50: −log10 of the molar value.
Please respond with reported pIC50 for every item in the list.

So what does the record say about pIC50 for CC1(C)C(=O)N(c2ccc(SC(F)(F)F)cc2)C(=O)N1Cc1ccnc(NC2CC2)c1 [Example 40D] ?
7.00 to 8.00

What about this compound? CN(C)C(=O)Nc1nccc(CN2C(=O)N(c3ccc(SC(F)(F)F)cc3)C(=O)C2(C)C)n1
< 7.00

What about this compound? CC1(C)C(=O)N(c2ccc(SC(F)(F)F)cc2)C(=O)N1Cc1ccnc(Nc2cncnc2)n1
7.00 to 8.00

What about this compound? CCCCN(C)C(=O)Nc1cc(CN2C(=O)N(c3ccc(SC(F)(F)F)cc3)C(=O)C2(C)C)ccn1
7.00 to 8.00

What about this compound? CC1(C)C(=O)N(c2ccc(SC(F)(F)F)cc2)C(=O)N1Cc1ccnc(NC(=O)NC2CC(CO)C2)c1 (mixture of isomers) [Example 40B Stage a)]
7.00 to 8.00

What about this compound? COC(=O)Nc1cc(CN2C(=O)N(c3ccc(SC(F)(F)F)cc3)C(=O)C2(C)C)ccn1 [Example 40L]
7.00 to 8.00

What about this compound? CC1(C)C(=O)N(c2ccc(SC(F)(F)F)cc2)C(=O)N1Cc1ccnc(NC(N)=O)c1 [Example 40A]
7.00 to 8.00

What about this compound? CC1(C)C(=O)N(c2ccc(SC(F)(F)F)cc2)C(=O)N1Cc1ccnc(NC(=O)NC2CCCCC2)c1
< 7.00

What about this compound? CC1(C)C(=O)N(c2ccc(SC(F)(F)F)cc2)C(=O)N1Cc1ccnc(NC(=O)c2cc(Cl)cc(Cl)c2)c1
< 7.00

What about this compound? CN(C)CCCNC(=O)Nc1cc(CN2C(=O)N(c3ccc(SC(F)(F)F)cc3)C(=O)C2(C)C)ccn1 [Example 38]
7.00 to 8.00

What about this compound? CC1(C)C(=O)N(c2ccc(SC(F)(F)F)cc2)C(=O)N1Cc1ccnc(NC(=O)NCCN2CCCCC2)c1
< 7.00

What about this compound? CNC(=O)Nc1cc(CN2C(=O)N(c3ccc(S(=O)(=O)C(F)(F)F)cc3)C(=O)C2(C)C)ccn1
< 7.00

What about this compound? CC1(C)C(=O)N(c2ccc(SC(F)(F)F)cc2)C(=O)N1Cc1ccnc(Nc2cncc(F)c2)c1
< 7.00

What about this compound? CC1(C)C(=O)N(c2ccc(SC(F)(F)F)cc2)C(=O)N1Cc1ccnc(Nc2cccnc2)n1
7.00 to 8.00

What about this compound? CC1(C)C(=O)N(c2ccc(SC(F)(F)F)cc2)C(=O)N1Cc1ccnc(NC(=O)NC2CCC2)c1
7.00 to 8.00

What about this compound? CC1(C)C(=O)N(c2ccc(SC(F)(F)F)cc2)C(=O)N1Cc1ccnc(NC(=O)N2CCCCC2)c1
7.00 to 8.00

What about this compound? Cc1ccc(F)c(C(=O)Nc2cc(CN3C(=O)N(c4ccc(SC(F)(F)F)cc4)C(=O)C3(C)C)ccn2)c1Cl
< 7.00

What about this compound? CC1(C)C(=O)N(c2ccc(SC(F)(F)F)cc2)C(=O)N1Cc1ccnc(Nc2ccc(O)nc2)c1 [Example 40G]
7.00 to 8.00

What about this compound? CC1(C)C(=O)N(c2ccc(SC(F)(F)F)cc2)C(=O)N1Cc1ccnc(NC(=O)NC2CC2)c1
7.00 to 8.00

What about this compound? CN(C)C(=O)Nc1nccc(CN2C(=O)N(c3ccc(S(=O)(=O)C(F)(F)F)cc3)C(=O)C2(C)C)n1
< 7.00

What about this compound? CC1(C)C(=O)N(c2ccc(SC(F)(F)F)cc2)C(=O)N1Cc1ccnc(NC(=O)N2CCOCC2)c1
7.00 to 8.00

What about this compound? CC1(C)C(=O)N(c2ccc(SC(F)(F)F)cc2)C(=O)N1Cc1ccnc(Nc2ccc(Cl)nc2)c1 [Example 40F]
< 7.00

What about this compound? CC1(C)C(=O)N(c2ccc(SC(F)(F)F)cc2)C(=O)N1Cc1ccnc(NC(=O)NCCN2CCCC2)c1
< 7.00

What about this compound? CCCCNC(=O)Nc1cc(CN2C(=O)N(c3ccc(SC(F)(F)F)cc3)C(=O)C2(C)C)ccn1
< 7.00

What about this compound? CCN(C)C(=O)Nc1cc(CN2C(=O)N(c3ccc(SC(F)(F)F)cc3)C(=O)C2(C)C)ccn1
7.00 to 8.00

What about this compound? CC1(C)C(=O)N(c2ccc(SC(F)(F)F)cc2)C(=O)N1Cc1ccnc(NC(=O)NCCCN2CCCC2)c1
7.00 to 8.00

Where do the numbers come from? From patent US20090082329A1.
